- EXPERIMENTAL SYSTEM: CCK receptor (guinea pig cerebral cortex) (Cavia porcellus)
- Construct: Cerebral cortex was dissected and used as a receptor source; from tissue; host or cells: cerebral cortex of male Hartley guinea pigs (membranes)
- Sequence (H0VZC5 entry or part of it): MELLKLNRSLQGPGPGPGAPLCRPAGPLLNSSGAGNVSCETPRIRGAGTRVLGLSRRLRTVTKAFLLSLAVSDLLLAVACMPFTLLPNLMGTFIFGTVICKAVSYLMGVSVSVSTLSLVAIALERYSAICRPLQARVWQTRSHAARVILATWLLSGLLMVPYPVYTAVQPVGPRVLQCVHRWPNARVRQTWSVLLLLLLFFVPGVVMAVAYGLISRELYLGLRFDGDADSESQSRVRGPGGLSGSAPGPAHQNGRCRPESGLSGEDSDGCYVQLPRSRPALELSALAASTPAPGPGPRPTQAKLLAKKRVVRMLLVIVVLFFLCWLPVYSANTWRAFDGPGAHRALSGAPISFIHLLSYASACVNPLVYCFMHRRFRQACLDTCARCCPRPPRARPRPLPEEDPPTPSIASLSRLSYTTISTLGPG
- PROTOCOL SUMMARY: 125I-CCK receptor binding (brain)
- CONDITION LABEL: 125I-CCK-33, guinea pig cerebral cortex, 25° C., 2 hours
Recorded measurements of IC50, one per entry
Numeric answer only, unit µM assumed.

CHEMICAL STRING	IC50 [µM]
CCOC(=O)CNC1=Nc2ccccc2C(c2ccccc2F)=N[C@@H]1Cc1c[nH]c2ccccc12	49

Pending compound:
Can you share its IC50? I mean this compound: `O=C(O)CNC1=Nc2ccccc2C(c2ccccc2F)=N[C@@H]1Cc1c[nH]c2ccccc12` 31
